Target: SpRvs167
Test: SPOT peptide array binding signal intensity (averaged, normalized) (arbitrary units (background-subtracted, floor 0; scale differs between SH3 domains)); higher = stronger binding of the SH3 domain to the peptide
measure: SPOT peptide array binding signal intensity
One number for each entry.

Would you please look over these solved cases?
| binder | result |
| --- | --- |
| AAHKTKPSIPPKKVE | 9.5 |
| HAPPLPPTAPPPPSL | 2.67 |
| ISNFVPPNLPMRRFK | 1440 |
| VNFRRIPTGPDSPPT | 10.7 |
| SSAAPPPPPRRATPE | 1860 |
| TKFRISLGLPVGAIM | 39.2 |
| ALFRLSFFFPLDPAY | 131 |
| DGNEEKPLLPTRPNK | 467 |
| FVLRYYILIPHEQWD | 10.7 |
| FLIKFTPKFPQSIDH | 49.8 |

Here are 4 binders. What values of SPOT peptide array binding signal intensity were reported for them?
1. RTRRRPPPPPIPSTQ
2. NMLKKKPLKKPLKRF
3. NRLRKRLNLPSEISI
4. KRRAPPPVPKKPSSR

[1250, 15.8, 2.33, 1820]
